- Test system: DU-145 prostate
- methodDescription: NCI-60 one-dose screen, 48 h (100 = growth as untreated, 0 = no growth, -100 = all killed)
- reportedConditions: 10 µM unless noted
This is part of a sample that, as a whole, favours compounds with a hit. Of some 83,000 tested, about 20% had one in any assay.
readout: growth (%)
# unit: % | format: bare number

For orientation, consider the following solved cases.
| structure | experimentalTarget | numericReadout |
| --- | --- | --- |
| CC1=C(C)C(=O)C(Nc2ccc3c(c2)OCCO3)=C(Br)C1=O | DU-145 prostate | 107 |
| CS(=O)(=O)c1ccc(/C(=N/N=C(N)N)c2ccc(Cl)cc2)cc1 | DU-145 prostate | 101 |
| COc1ccc(OC)c(NC(=O)CCCCCCNC(=O)C(O)(O)C(F)(F)F)c1 | DU-145 prostate | 34.9 |
| C1=CC(c2nn3c(-c4ccccc4)nnc3s2)=Cc2ccccc2O1 | DU-145 prostate | 84.8 |

Lookup result for "COC(=O)[C@@H](Cc1c[nH]c2ccccc12)NC(=O)CCCCOc1cc(O)c2c(=O)cc(-c3ccccc3)oc2c1" ; measured growth: 93.3

Lookup result for "CCN(CC)CCOc1ccc(C(=C(c2ccccc2)C2CCCC2)c2ccc(OCCN(CC)CC)cc2)cc1" ; measured growth: 38.3

Lookup result for "COc1cc(-c2nc(-c3ccccc3)[nH]c2-c2ccnc(NCCCNS(=O)(=O)c3ccc(C)cc3)n2)ccc1F" ; measured growth: 86.7

Lookup result for "C=C(C)[C@@H]1CC[C@]2(C(=O)O)CC[C@]3(C)[C@H](CC[C@@H]4[C@@]5(C)C/C(=C/c6ccccn6)C(=O)C(C)(C)[C@@H]5CC[C@]43C)[C@@H]12" ; measured growth: 45.5

Lookup result for "COCCOc1ccc2ncc(C#Cc3cncc(C(=O)Nc4ccc(CN5CCN(C)CC5)c(C(F)(F)F)c4)c3)n2n1" ; measured growth: 7.72

Lookup result for "CC(=O)Nc1ccccc1-c1nc2ccccc2s1" ; measured growth: 110

Lookup result for "O=C1/C(=C/C=C/c2ccco2)SC(=S)N1Cc1ccccc1" ; measured growth: 93.8

Lookup result for "C#C[C@]1(O)CC[C@H]2[C@@H]3CC=C4c5sc(Nc6cc(C)cc(C)c6)nc5CC[C@]4(C)[C@H]3CC[C@@]21C" ; measured growth: 45.4

Lookup result for "C=C(C)[C@@H]1CC[C@]2(C(=O)N3CCN(C)CC3)CC[C@]3(C)[C@H](CC[C@@H]4[C@@]5(C)CC[C@H](OP(=O)(OCC)OCC)C(C)(C)[C@@H]5CC[C@]43C)[C@@H]12" ; measured growth: 101

Lookup result for "O=C(NCCNc1cc(-c2cn(-c3ccccc3)nc2-c2cccc(O)c2)ccn1)Nc1cc(C(F)(F)F)cc(C(F)(F)F)c1" ; measured growth: 106

Lookup result for "Brc1ccc(-c2cc(-c3ccc4c(c3)OC=CO4)n[nH]2)s1" ; measured growth: 99.1

Lookup result for "O=C(/C=C/c1cccc(Br)c1)c1cccc(OCCCCOc2cccc(C(=O)/C=C/c3cccc(Br)c3)c2)c1" ; measured growth: 109

Lookup result for "O=C1C(SCc2ccccc2)=C(Cl)CN1c1ccccc1" ; measured growth: 102

Where do the numbers come from? From PubChem BioAssay (NCI).
